phosphorylation enrichment values, listed per item
Molecular target: Hck (UniProt P08631)
Sequence (P08631 whole entry, looked up): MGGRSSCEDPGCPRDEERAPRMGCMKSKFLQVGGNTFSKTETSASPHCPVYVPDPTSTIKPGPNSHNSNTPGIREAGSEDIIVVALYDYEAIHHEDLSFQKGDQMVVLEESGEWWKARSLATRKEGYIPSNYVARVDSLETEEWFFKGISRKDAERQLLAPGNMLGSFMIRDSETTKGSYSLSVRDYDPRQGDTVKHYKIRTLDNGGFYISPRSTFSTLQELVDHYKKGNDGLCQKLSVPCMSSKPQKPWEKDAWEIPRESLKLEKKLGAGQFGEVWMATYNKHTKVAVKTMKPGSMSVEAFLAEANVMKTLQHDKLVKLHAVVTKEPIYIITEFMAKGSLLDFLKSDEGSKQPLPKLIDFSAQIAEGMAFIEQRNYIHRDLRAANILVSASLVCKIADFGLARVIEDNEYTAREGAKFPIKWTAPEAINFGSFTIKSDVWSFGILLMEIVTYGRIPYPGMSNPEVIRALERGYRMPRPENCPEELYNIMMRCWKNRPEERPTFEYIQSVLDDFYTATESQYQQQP
Assay: phosphorylation enrichment, bacterial display (enrichment ratio); higher = better substrate or ligand; peptides without Tyr show the background;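 note: 11-residue human phosphosite peptides and single-mutation variants displayed on the E. coli surface, counted by deep sequencing, each peptide's frequency after selection divided by its frequency in the unselected input library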;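 note: frequency after pTyr selection over input frequency; kinase dosed for 20-30% of maximal phosphorylation in three min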

A selection of reference data follows.
{"columns": ["chain", "test.system", "phosphorylation enrichment"],
 "data": [
  ["EEGRVYVFRLS [ITGAE_Y549_YF]", "Hck (UniProt P08631)", 0.617],
  ["WFKKFYDANYD [MAPRE2_Y158]", "Hck (UniProt P08631)", 0.423],
  ["RRIHSYRGYLW [VHL_Y112_H115Y]", "Hck (UniProt P08631)", 0.64],
  ["MTRDIYETDYY [INSR_Y1185]", "Hck (UniProt P08631)", 1.39],
  ["FENGEYIIRQG [PRKG1_Y247_YF]", "Hck (UniProt P08631)", 0.565]
]}

query: // Input: ADLLVYIKALN [HPRT1_Y81_D80V] . Output its phosphorylation enrichment only.
result: 0.657

query: // Input: RGDTVYTVNRM [KBTBD13_Y404] . Output its phosphorylation enrichment only.
result: 1.61

query: // Input: FQNGMYGLHQD [SGSH_Y89_H84Y_YF] . Output its phosphorylation enrichment only.
result: 0.598

query: // Input: ARLEFCENEKK [IRS1_Y47_Y47C_YF] . Output its phosphorylation enrichment only.
result: 0.402

query: // Input: GHNNVYISEHV [GRIN2A_Y1423_D1421N] . Output its phosphorylation enrichment only.
result: 0.476

query: // Input: CTTIYYNYMCN [TP53_Y234_H233Y] . Output its phosphorylation enrichment only.
result: 6.93

###

Test system: AncSZ
Assay: phosphorylation enrichment, bacterial display (enrichment ratio); higher = better substrate or ligand; peptides without Tyr show the background
Entry flag: yes (1) if phosphorylation enrichment reaches 1; no (0) if it does not.

// known answers, use as guide
{"columns": ["chain", "test.system", "discrete.label"],
 "data": [
  ["IMITDYLPLFR [INSR_Y87_L89P]", "AncSZ", "yes (1)"],
  ["FESPRYLQVRI [FANCA_Y488_H492R]", "AncSZ", "no (0)"],
  ["IQRSLYDCPAS [PDGFRA_Y762_R764C]", "AncSZ", "yes (1)"]
]}

query: Is it the case that MSSHHCDYKKY [ZNF445_Y428_Y428C] has phosphorylation enrichment reaching or exceeding 1?
result: no (0)

query: Is it the case that RGDTVYTVNRM [KBTBD13_Y404] has phosphorylation enrichment reaching or exceeding 1?
result: yes (1)

###

Target: Fes (UniProt P07332)
Sequence (P07332 whole entry, looked up): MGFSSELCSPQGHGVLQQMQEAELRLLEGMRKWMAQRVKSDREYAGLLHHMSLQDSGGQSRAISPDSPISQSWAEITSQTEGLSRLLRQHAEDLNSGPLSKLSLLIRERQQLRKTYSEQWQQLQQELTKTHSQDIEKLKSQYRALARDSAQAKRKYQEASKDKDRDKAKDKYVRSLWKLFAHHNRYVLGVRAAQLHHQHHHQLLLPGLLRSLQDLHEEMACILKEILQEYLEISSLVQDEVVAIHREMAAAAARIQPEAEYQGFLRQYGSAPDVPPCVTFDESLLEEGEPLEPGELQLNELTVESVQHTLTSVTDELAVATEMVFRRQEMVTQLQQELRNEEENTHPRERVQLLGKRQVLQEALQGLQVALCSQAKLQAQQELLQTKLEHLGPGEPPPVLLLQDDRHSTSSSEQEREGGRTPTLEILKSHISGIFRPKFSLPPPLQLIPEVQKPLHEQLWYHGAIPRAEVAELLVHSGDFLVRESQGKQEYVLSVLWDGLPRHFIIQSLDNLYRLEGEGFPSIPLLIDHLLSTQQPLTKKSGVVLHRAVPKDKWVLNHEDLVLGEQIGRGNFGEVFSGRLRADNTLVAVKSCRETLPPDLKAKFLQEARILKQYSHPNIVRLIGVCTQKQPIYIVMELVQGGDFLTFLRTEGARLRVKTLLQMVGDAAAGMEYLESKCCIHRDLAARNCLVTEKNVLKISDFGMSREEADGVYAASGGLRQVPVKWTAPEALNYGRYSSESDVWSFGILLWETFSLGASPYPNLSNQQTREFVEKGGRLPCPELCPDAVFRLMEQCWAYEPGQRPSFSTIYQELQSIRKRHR
Assay: phosphorylation enrichment, bacterial display (enrichment ratio); higher = better substrate or ligand; peptides without Tyr show the background
Entry flag: label 1 if phosphorylation enrichment reaches 1; label 0 if it does not.

{"columns": ["chain", "discrete.label"],
 "data": [
  ["GREAEYSEKHG [EPHB4_Y574_D576E]", "label 0"],
  ["QRDSSYFWEIE [RAF1_Y340_YF]", "label 1"]
]}

query: Is it the case that TLNVRYESVQA [CEACAM7_Y236] has phosphorylation enrichment reaching or exceeding 1?
result: label 0

query: Is it the case that SVMVPYEPPEV [TP53_Y220_V217M] has phosphorylation enrichment reaching or exceeding 1?
result: label 1

query: Is it the case that LKGQVYILGGE [ASS1_Y359_R363G] has phosphorylation enrichment reaching or exceeding 1?
result: label 1

query: Is it the case that DFEGLYQEGGG [TMEM159_Y159_E154D] has phosphorylation enrichment reaching or exceeding 1?
result: label 1
